Tested on: Malme-3M
Test: Cytotoxicity against Homo sapiens (human) MALME-3M cells assessed as growth inhibition at 10 uM after 48 hr by coulter counter analysis
Assay type: functional
Settings: read-out: GI
TEST READOUT: inhibition of growth at 10 µM

The following molecules have reported results that may help.
Oc1ccc(-c2nc3c4c(ncn3n2)NC2=C(CCCC2)C4c2ccc(Cl)cc2)cc1 (stereo not given): 13%
O=c1[nH]c(-c2ccccc2)nc2c1C(c1ccc(Cl)cc1)C1=C(CCCC1)N2 (stereo not given): < 10%
COc1ccc(C2C3=C(CCCC3)Nc3nc(-c4ccc(N(C)C)cc4)[nH]c(=O)c32)cc1OC (stereo not given): < 10%
N#CCc1nc2c(c(=O)[nH]1)C(c1ccc(Cl)cc1)C1=C(CCCC1)N2 (stereo not given): < 10%

Now examine the next entry.
### Prompt Supply reported inhibition of growth at 10 µM belonging to this molecule: COc1ccc(C2C3=C(CCCC3)Nc3nc(CC#N)[nH]c(=O)c32)cc1OC (stereo not given)
### Response < 10%

Where do the numbers come from? From ChEMBL document CHEMBL3045802.
